Target: T1, human PD-L1, full-length, on CHO cells (human, UniProt Q9NZQ7 19-290)
T1 construct: also called huPD-L1; CD274
T1 sequence (Q9NZQ7 19-290): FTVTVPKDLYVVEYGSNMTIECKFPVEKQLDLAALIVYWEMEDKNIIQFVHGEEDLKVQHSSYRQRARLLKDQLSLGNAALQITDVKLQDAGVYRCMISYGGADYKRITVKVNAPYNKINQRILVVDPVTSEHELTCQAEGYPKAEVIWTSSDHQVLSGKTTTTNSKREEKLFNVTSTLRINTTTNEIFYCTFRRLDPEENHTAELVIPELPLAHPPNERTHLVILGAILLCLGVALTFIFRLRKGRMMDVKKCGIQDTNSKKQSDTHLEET
Test: flow cytometry, CHO cells stably expressing PD-L1
Exercise: for every item that follows, state its recorded MFI at 33.3 nM.
// note: answer is a bare numeric in MFI

Q: // returns reported MFI at 33.3 nM for input variant CD80 IgV-Fc E35D/D46V/M47L/V68M (Fc fusion, not shown: small tags and cut ends; a dimerising Fc or GST) VIHVTKEVKEVATLSCGHNVSVEELAQTRIYWQKDKKMVLTMMSGVLNIWPEYKNRTIFDITNNLSIMILALRPSDEGTYECVVLKYEKDAFKREHLAEVTLSVKAD
Ans: 29300

Q: MFI at 33.3 nM lookup needed for variant CD80 IgV-Fc E35D (Fc fusion, not shown: small tags and cut ends; a dimerising Fc or GST) VIHVTKEVKEVATLSCGHNVSVEELAQTRIYWQKDKKMVLTMMSGDMNIWPEYKNRTIFDITNNLSIVILALRPSDEGTYECVVLKYEKDAFKREHLAEVTLSVKAD , thanks.
Ans: 2580

Q: # lookup: MFI at 33.3 nM of variant CD80 IgV-Fc E35D/M47V (Fc fusion, not shown: small tags and cut ends; a dimerising Fc or GST) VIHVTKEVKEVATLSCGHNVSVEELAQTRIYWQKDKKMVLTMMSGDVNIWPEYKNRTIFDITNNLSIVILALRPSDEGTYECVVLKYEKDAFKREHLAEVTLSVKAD
Ans: 6800

Q: # get_value(readout='MFI at 33.3 nM', item= variant CD80 IgV-Fc M47V/K89N (Fc fusion, not shown: small tags and cut ends; a dimerising Fc or GST) VIHVTKEVKEVATLSCGHNVSVEELAQTRIYWQKEKKMVLTMMSGDVNIWPEYKNRTIFDITNNLSIVILALRPSDEGTYECVVLKYENDAFKREHLAEVTLSVKAD )
Ans: 622
